TARGET_UNDER_TEST: Pancreatic lipase (PL) (Sus scrofa, UniProt P00591)
Construct: purchased Sigma Aldrich type II, Lot.SLBN9099V
Sequence (P00591 whole entry): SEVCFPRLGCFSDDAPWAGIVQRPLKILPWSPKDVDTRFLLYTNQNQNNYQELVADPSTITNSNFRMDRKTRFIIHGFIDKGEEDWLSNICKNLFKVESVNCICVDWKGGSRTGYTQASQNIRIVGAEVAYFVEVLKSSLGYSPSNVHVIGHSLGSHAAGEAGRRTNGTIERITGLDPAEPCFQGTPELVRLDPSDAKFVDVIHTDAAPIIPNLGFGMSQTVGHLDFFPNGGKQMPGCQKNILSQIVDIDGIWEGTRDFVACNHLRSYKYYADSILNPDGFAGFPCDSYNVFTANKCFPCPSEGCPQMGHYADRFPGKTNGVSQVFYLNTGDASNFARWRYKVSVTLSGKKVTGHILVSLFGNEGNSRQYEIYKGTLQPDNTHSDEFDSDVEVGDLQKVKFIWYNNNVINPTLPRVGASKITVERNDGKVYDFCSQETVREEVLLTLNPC
MEASUREMENT_PROTOCOL: Inhibition of PL-mediated 4-MUO hydrolysis
Format: biochemical
STATED_CONDITIONS: 4-MUO substrate, mean ± SD (n = 3)
MEASURED_ATTRIBUTE: IC50 (µM)
Form entry: value (µM) — number only.

Some entries whose results are on file:
Looking up CC1(C)CCC2(C(N)=O)CCC3(C)C(=CCC4C5(C)CCC(O)C(C)(C)C5CCC43C)C2C1 (centres unmarked) , I found its IC50 recorded as 7.83

Looking up "CC1(C)CC[C@]2(C(=O)O)CC[C@]3(C)C(=CC[C@@H]4[C@@]5(C)C[C@@H](O)[C@H](O)C(C)(C)[C@@H]5CC[C@]43C)[C@@H]2C1" , I found its IC50 recorded as 16

Now let's try a different one.
Looking up "C[C@H]1[C@H](C)CC[C@]2(C)CC[C@]3(C)C(=CC[C@@H]4[C@@]5(C)CC[C@@H](O)[C@](C)(C(=O)O)[C@@H]5CC[C@]43C)[C@H]12" , I found its IC50 recorded as 0.42
